Recorded Kd values for a group of compounds are listed next.
target: STAT5B(N642H) (Homo sapiens, UniProt P51692, N642H); construct: made in house; host or cells: HEK293 (transient transfection), unpurified extract; test: biochemical; format: binding; details: dose-response; read-out: KD
Assay Readout: Kd (µM)

>>> endpoint_value("C/C(=C\\C(=O)N[C@H](C(=O)N1CCC[C@H]1C(=O)N(c1ccccc1)c1ccc(I)cc1)C(C)(C)C)c1ccc(OP(=O)(O)O)cc1")
0.0056
>>> endpoint_value("CC(C)(C)[C@H](NC(=O)/C=C/c1ccc(OP(=O)(O)O)cc1)C(=O)N1CCC[C@H]1C(=O)N(c1ccccc1)c1ccc(I)cc1")
0.036

* * *

biological target: STAT3(E616del)-nonphosphorylated (Homo sapiens, UniProt P40763, DEL616-616); construct: made in house; host or cells: HEK293 (transient transfection), unpurified extract, dephosphorylated by endogenous phosphatases; assay: biochemical; type: binding
pKd: −log10 of the molar value.
Assay Readout: pKd

>>> endpoint_value("CC(=O)N1CC[C@H]2CC[C@@H](C(=O)N[C@@H](CCC(N)=O)C(=O)NC(c3ccccc3)c3ccccc3)N2C(=O)[C@@H](NC(=O)c2cc3cc(C(F)(F)P(=O)(O)O)ccc3[nH]2)C1")
8.06

* * *

Recorded percent of DMSO vehicle control at 10 µM values for a group of compounds are listed next.
biological target: TEC (Homo sapiens); construct: made in house; host or cells: HEK293 (transient transfection), unpurified extract; assay: biochemical; assay type: binding; conditions: read-out: percent of DMSO vehicle control
Non-standard residues stand in square brackets, D forms with d. Residues, ends and D or L forms follow the SMILES beside them. *: point of attachment. pY = N[C@@H](Cc1ccc(OP(=O)(O)O)cc1)C(=O)O; Caffeoyl = O=C(/C=C/c1ccc(O)c(O)c1)*
Assay Readout: percent of DMSO vehicle control at 10 µM (%)

>>> endpoint_value("CC(=O)N1CC[C@H]2CC[C@@H](C(=O)N[C@@H](CCC(N)=O)C(=O)NC(c3ccccc3)c3ccccc3)N2C(=O)[C@@H](NC(=O)c2cc3cc(C(F)(F)P(=O)(O)O)ccc3[nH]2)C1")
135
>>> endpoint_value("NC(=O)CC[C@H](NC(=O)[C@@H]1CC[C@@H]2CCN(C(=O)CCCCCC#Cc3cccc4c3CN(C3CCC(=O)NC3=O)C4=O)C[C@H](NC(=O)c3cc4cc(C(F)(F)P(=O)(O)O)ccc4[nH]3)C(=O)N21)C(=O)NC(c1ccccc1)c1ccccc1 (stereo partly shown)")
121
>>> endpoint_value("CC[C@H](C)[C@H](NC(=O)[C@H](CCC(=O)O)NC(=O)[C@H](CCC(=O)O)NC(=O)[C@H](Cc1ccc(OP(=O)(O)O)cc1)NC(=O)/C=C/c1ccc(O)c(O)c1)C(=O)N[C@@H](CCC(=O)O)C(=O)O [Caffeic acid-pYEEIE] (Caffeoyl-[pY]EEIE-OH)")
0.1
>>> endpoint_value("CC(=O)N[C@@H](Cc1ccc(CP(=O)(O)O)cc1)C(=O)NC1(C(=O)N[C@@H](CC(N)=O)C(=O)NCCCc2c(O)ccc3ccccc23)CCCCC1")
126

* * *

Recorded percent of DMSO vehicle control values for a group of molecules are listed next.
target: PTPN11(SH2dom.N-term.) (Homo sapiens, UniProt Q06124); construct: SH2dom.N-term. denotes SH2 domain closest to N-terminus of protein; made in house; host or cells: HEK293 (transient transfection, unpurified extract); assay type: binding; details: primary screen, 10 μM
Assay Readout: percent of DMSO vehicle control (%)

>>> endpoint_value("C/C(=C\\C(=O)N[C@H](C(=O)N1CCC[C@H]1C(=O)N(c1ccccc1)c1ccc(I)cc1)C(C)(C)C)c1ccc(OP(=O)(O)O)cc1 [STAT6-IN-1]")
76.7
>>> endpoint_value("CC(=O)N1CC[C@H]2CC[C@@H](C(=O)N[C@@H](CCC(N)=O)C(=O)NC(c3ccccc3)c3ccccc3)N2C(=O)[C@@H](NC(=O)c2cc3cc(C(F)(F)P(=O)(O)O)ccc3[nH]2)C1 [SI-109]")
109.2
>>> endpoint_value("O=C(CCl)Nc1cccc(CNC(=O)[C@H](Cc2ccc(OP(=O)(O)O)cc2)NC(=O)Cc2ccc(F)cc2)c1 [MN551]")
85.0
>>> endpoint_value("O=C(COc1ccc2cc(C(=O)Nc3ccccc3)ccc2c1)NCc1ccc(OP(=O)(O)O)c(OP(=O)(O)O)c1 [Stafib-1]")
79.2

* * *

target: STAT3(N647I)-nonphosphorylated (Homo sapiens, UniProt P40763, N647I); construct: made in house; host or cells: HEK293 (transient transfection), unpurified extract, dephosphorylated by endogenous phosphatases; experiment: biochemical; type: binding; details: dose-response; read-out: KD
pKd: −log10 of the molar value.
Recorded pKd values for a group of compounds are listed next.
Assay Readout: pKd

>>> endpoint_value("C/C(=C\\C(=O)N[C@H](C(=O)N1CCC[C@H]1C(=O)N(c1ccccc1)c1ccc(I)cc1)C(C)(C)C)c1ccc(OP(=O)(O)O)cc1")
6.10
>>> endpoint_value("CC(C)(C)[C@H](NC(=O)/C=C/c1ccc(OP(=O)(O)O)cc1)C(=O)N1CCC[C@H]1C(=O)N(c1ccccc1)c1ccc(I)cc1")
5.82

* * *

Recorded pKd values for a group of compounds are listed next.
Target: HSH2D (Homo sapiens)
Construct: the DNA-tagged SH2 domain concentrations used in this study were <0.1 nM; made in house; host or cells: HEK293 (transient transfection, unpurified extract)
Sequence (Q96JZ2 34-125 limits assumed): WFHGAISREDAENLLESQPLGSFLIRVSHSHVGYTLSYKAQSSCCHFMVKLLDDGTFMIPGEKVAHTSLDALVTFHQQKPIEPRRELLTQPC
Assay: biochemical
Format: binding
pKd: −log10 of the molar value. Non-standard residues stand in square brackets, D forms with d. Residues, ends and D or L forms follow the SMILES beside them. pY = N[C@@H](Cc1ccc(OP(=O)(O)O)cc1)C(=O)O
Assay Readout: pKd

>>> endpoint_value("CSCC[C@H](NC(=O)[C@H](Cc1ccc(OP(=O)(O)O)cc1)NC(=O)[C@H](CC(=O)O)NC(=O)[C@H](CO)NC(C)=O)C(=O)N[C@@H](CC(N)=O)C(=O)N[C@@H](CCSC)C(=O)N[C@H](C(=O)N1CCC[C@H]1C(=O)N[C@@H](CCCNC(=N)N)C(=O)N[C@@H](CCCNC(=N)N)C(=O)N1CCC[C@H]1C(N)=O)[C@@H](C)O (Ac-SD[pY]MNMTPRRP-NH2)")
6.06
>>> endpoint_value("CC(=O)N[C@@H](Cc1ccc(CP(=O)(O)O)cc1)C(=O)NC1(C(=O)N[C@@H](CC(N)=O)C(=O)NCCCc2c(O)ccc3ccccc23)CCCCC1")
5.80

* * *

molecular target: TEC (Homo sapiens, UniProt P42680); construct: made in house; host or cells: HEK293 (transient transfection), unpurified extract; test: biochemical; type: binding; conditions: primary screen, 10 μM; read-out: percent of DMSO vehicle control
Assay Readout: remaining activity at 10 µM

>>> endpoint_value("C/C(=C\\C(=O)N[C@H](C(=O)N1CCC[C@H]1C(=O)N(c1ccccc1)c1ccc(I)cc1)C(C)(C)C)c1ccc(OP(=O)(O)O)cc1")
"75.1%"
>>> endpoint_value("O=C(CCl)Nc1cccc(CNC(=O)[C@H](Cc2ccc(OP(=O)(O)O)cc2)NC(=O)Cc2ccc(F)cc2)c1")
"120%"
>>> endpoint_value("O=C(COc1ccc2cc(C(=O)Nc3ccccc3)ccc2c1)NCc1ccc(OP(=O)(O)O)c(OP(=O)(O)O)c1")
"159%"
>>> endpoint_value("CC(C)(C)[C@H](NC(=O)/C=C/c1ccc(OP(=O)(O)O)cc1)C(=O)N1CCC[C@H]1C(=O)N(c1ccccc1)c1ccc(I)cc1")
"136%"

* * *

target: CRK (Homo sapiens); construct: the DNA-tagged SH2 domain concentrations used in this study were <0.1 nM; made in house; host or cells: HEK293 (transient transfection; unpurified extract); assay: biochemical; type: binding; settings: primary screen, 10 μM; read-out: percent of DMSO vehicle control
Recorded remaining activity at 10 µM values for a group of compounds are listed next.
Assay Readout: remaining activity at 10 µM (%)

>>> endpoint_value("C/C(=C\\C(=O)N[C@H](C(=O)N1CCC[C@H]1C(=O)N(c1ccccc1)c1ccc(I)cc1)C(C)(C)C)c1ccc(OP(=O)(O)O)cc1")
34.5
>>> endpoint_value("CC(C)(C)[C@H](NC(=O)/C=C/c1ccc(OP(=O)(O)O)cc1)C(=O)N1CCC[C@H]1C(=O)N(c1ccccc1)c1ccc(I)cc1")
80.4
>>> endpoint_value("O=C(COc1ccc2cc(C(=O)Nc3ccccc3)ccc2c1)NCc1ccc(OP(=O)(O)O)c(OP(=O)(O)O)c1")
90.2
>>> endpoint_value("O=C(CCl)Nc1cccc(CNC(=O)[C@H](Cc2ccc(OP(=O)(O)O)cc2)NC(=O)Cc2ccc(F)cc2)c1")
72.1

Hello, the source for this data is paper PMC12951562, in case you need it.
